# System: human CCR5 (Homo sapiens, UniProt P51681)
# Construct: expressed in transfected cells
# Sequence (P51681 whole entry): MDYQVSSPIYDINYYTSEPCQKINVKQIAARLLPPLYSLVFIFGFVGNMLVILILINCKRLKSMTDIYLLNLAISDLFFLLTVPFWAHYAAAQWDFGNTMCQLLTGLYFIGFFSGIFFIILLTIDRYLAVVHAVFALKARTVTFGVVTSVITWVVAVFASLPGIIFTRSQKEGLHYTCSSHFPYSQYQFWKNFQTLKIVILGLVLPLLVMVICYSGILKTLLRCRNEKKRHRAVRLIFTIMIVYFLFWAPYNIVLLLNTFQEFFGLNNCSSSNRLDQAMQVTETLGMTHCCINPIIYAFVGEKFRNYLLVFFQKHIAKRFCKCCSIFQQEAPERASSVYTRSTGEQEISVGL
# Assay Remarks: [125I]-RANTES binding inhibition in CCR5/CHO cells (CCR5 antagonist activity)
# Conditions Used: test compound 1 μM, 100 pM [125I]-RANTES, room temperature, 40 minutes
Outcome Measure: Binding Inhibitory Ratio (%)

Smi | Value Observed
CCCCOCCOc1ccc(-c2cnc3c(c2)C=C(C(=O)Nc2ccc([S@@+]([O-])Cc4cncn4CCC)cc2)CCCN3CCC)cc1 | 93
CCCCOCCOc1ccc(-c2cnc3c(c2)C=C(C(=O)Nc2ccc([S@@+]([O-])Cc4cncn4CCC)cc2)CCCN3CC(C)C)cc1 | 94
CCCCOCCOc1ccc(-c2cnc3c(c2)C=C(C(=O)Nc2ccc(CN(C)C4CCOCC4)cc2)CCN3CC(C)C)cc1 | 100
CCCCOCCOc1ccc(-c2cnc3c(c2)C=C(C(=O)Nc2ccc([S@@+]([O-])Cc4cncn4CCC)cc2)CCN3CC(C)C)cc1 | 100
